Below, each entry is listed with its recorded viability, T/C.
Test system: SYO-1 complex spheroid growth, percent test/control
METHOD NOTES: Anticancer human tumor SYO-1 cell line growth inhibition [Asc];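 also: compound exposure lasted 7 days after spheroids grew 3 days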;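 as to viability, T/C: 100% = DMSO vehicle control viability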
TEST PARAMETERS: second compound 10 µM; first compound 0.01 µM; stronger effect = lower value

COMPOUND	OBSERVED VALUE
COc1c(OCCCN2CCOCC2)ccc2c3n(c(=NC(=O)c4cnc(N)nc4)nc12)CCN3 + Cc1c(S(C)(=O)=O)c(-c2cc(F)cc(N3CCN(c4ccc(NS(=O)(=O)c5ccc(NC(CCN6CCC(C(=O)OCCCP(=O)(O)O)CC6)CSc6ccccc6)c(S(=O)(=O)C(F)(F)F)c5)cc4)CC3)c2)c(-c2ccc(Cl)cc2)n1C(C)C	88.7%
O=C(c1ccc(F)c(F)c1Nc1ccc(I)cc1F)N1CC(O)([C@@H]2CCCCN2)C1 + Cc1c(S(C)(=O)=O)c(-c2cc(F)cc(N3CCN(c4ccc(NS(=O)(=O)c5ccc(NC(CCN6CCC(C(=O)OCCCP(=O)(O)O)CC6)CSc6ccccc6)c(S(=O)(=O)C(F)(F)F)c5)cc4)CC3)c2)c(-c2ccc(Cl)cc2)n1C(C)C	81.3%

Next compound, viability, T/C to be filled in.
Find the measured viability, T/C: item NC1CCC(NC2CC2c2ccccc2)CC1 (stereo not drawn) + Cc1c(S(C)(=O)=O)c(-c2cc(F)cc(N3CCN(c4ccc(NS(=O)(=O)c5ccc(NC(CCN6CCC(C(=O)OCCCP(=O)(O)O)CC6)CSc6ccccc6)c(S(=O)(=O)C(F)(F)F)c5)cc4)CC3)c2)c(-c2ccc(Cl)cc2)n1C(C)C , target or system SYO-1 complex spheroid growth, percent test/control.
82.4%

* * *

Test system: SYO-1 complex spheroid growth, percent test/control
METHOD NOTES: Anticancer human tumor SYO-1 cell line growth inhibition [Asc];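 also: compound exposure lasted 7 days after spheroids grew 3 days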
TEST PARAMETERS: curve of first compound; second compound 3 µM
Below, each entry is listed with its recorded IC50.

MOLECULE	IC50
COc1c(OCCCN2CCOCC2)ccc2c3n(c(=NC(=O)c4cnc(N)nc4)nc12)CCN3 + CCN1C(C(=O)NC23CCC(C(=O)O)(CC2)CC3)C(c2cccc(Cl)c2F)C2(C(=O)Nc3cc(Cl)ccc32)C12CCCCC2	< 3.16 nM
Cn1ncnc1[C@H]1c2n[nH]c(=O)c3cc(F)cc(c23)N[C@@H]1c1ccc(F)cc1 + CCN1C(C(=O)NC23CCC(C(=O)O)(CC2)CC3)C(c2cccc(Cl)c2F)C2(C(=O)Nc3cc(Cl)ccc32)C12CCCCC2	< 0.316 nM
CNC(C)C(=O)NC1CN(S(=O)(=O)c2cccc(S(=O)(=O)N3CCC4CCC(C(=O)NC(c5ccccc5)c5ccccc5)N4C(=O)C(NC(=O)C(C)NC)C3)c2)CCC2CCC(C(=O)NC(c3ccccc3)c3ccccc3)N2C1=O (centres undefined) + CCN1C(C(=O)NC23CCC(C(=O)O)(CC2)CC3)C(c2cccc(Cl)c2F)C2(C(=O)Nc3cc(Cl)ccc32)C12CCCCC2	< 3.16 nM
O=C(c1ccc(F)c(F)c1Nc1ccc(I)cc1F)N1CC(O)([C@@H]2CCCCN2)C1 + CCN1C(C(=O)NC23CCC(C(=O)O)(CC2)CC3)C(c2cccc(Cl)c2F)C2(C(=O)Nc3cc(Cl)ccc32)C12CCCCC2	< 3.16 nM
NC(=O)C(=Cn1cnc(-c2cc(C(F)(F)F)cc(C(F)(F)F)c2)n1)c1cncnc1 + CCN1C(C(=O)NC23CCC(C(=O)O)(CC2)CC3)C(c2cccc(Cl)c2F)C2(C(=O)Nc3cc(Cl)ccc32)C12CCCCC2	< 0.949 nM
C=CC(=O)N1CCN(c2nc(=O)n(-c3c(C)ccnc3C(C)C)c3nc(-c4c(O)cccc4F)c(F)cc23)C(C)C1 (centres undefined) + CCN1C(C(=O)NC23CCC(C(=O)O)(CC2)CC3)C(c2cccc(Cl)c2F)C2(C(=O)Nc3cc(Cl)ccc32)C12CCCCC2	< 31.6 nM

Give the measured IC50 of C=C(F)C(=O)N1CCN(c2nc(OCC3CCCN3C)nc3c2CCN(c2cccc4cccc(Cl)c24)C3)CC1CC#N (centres undefined) + CCN1C(C(=O)NC23CCC(C(=O)O)(CC2)CC3)C(c2cccc(Cl)c2F)C2(C(=O)Nc3cc(Cl)ccc32)C12CCCCC2 .
< 31.6 nM

Give the measured IC50 of CCN1CCN(Cc2ccc(Nc3ncc(F)c(-c4cc(F)c5nc(C)n(C(C)C)c5c4)n3)nc2)CC1 + CCN1C(C(=O)NC23CCC(C(=O)O)(CC2)CC3)C(c2cccc(Cl)c2F)C2(C(=O)Nc3cc(Cl)ccc32)C12CCCCC2 .
< 3.16 nM

Give the measured IC50 of C#Cc1c(F)ccc2cc(O)cc(-c3ncc4c(N5CC6CCC(C5)N6)nc(OCC56CCCN5CC(F)C6)nc4c3F)c12 (centres undefined) + CCN1C(C(=O)NC23CCC(C(=O)O)(CC2)CC3)C(c2cccc(Cl)c2F)C2(C(=O)Nc3cc(Cl)ccc32)C12CCCCC2 .
< 31.6 nM

* * *

Test system: SYO-1 complex spheroid growth, percent test/control
METHOD NOTES: Anticancer human tumor SYO-1 cell line growth inhibition [Asc];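 also: compound exposure lasted 7 days after spheroids grew 3 days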;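 as to viability, T/C: 100% = DMSO vehicle control viability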
TEST PARAMETERS: second compound 1 µM; first compound 0.949 µM; stronger effect = lower value
Description: Multicellular complex tumor spheroid response to apoptosis pathway targeting inhibitors Alrizomadlin, Pelcitoclax, and Dasminapant in combination with a variety of drugs and investigational agents in selected tumor cell lines […] Compounds. […] If the clinical Cmax for an agent had not been determined, the highest concentration tested was 10 microM. […]
MEASURE NAME: viability, T/C

Give the measured viability, T/C of Cc1nc(N2CCC3(CC2)COC(C)C3N)c(CO)nc1Sc1ccnc(N)c1Cl (centres undefined) + Cc1c(S(C)(=O)=O)c(-c2cc(F)cc(N3CCN(c4ccc(NS(=O)(=O)c5ccc(NC(CCN6CCC(C(=O)OCCCP(=O)(O)O)CC6)CSc6ccccc6)c(S(=O)(=O)C(F)(F)F)c5)cc4)CC3)c2)c(-c2ccc(Cl)cc2)n1C(C)C .
98.7%

Give the measured viability, T/C of CCN1C(C(=O)NC23CCC(C(=O)O)(CC2)CC3)C(c2cccc(Cl)c2F)C2(C(=O)Nc3cc(Cl)ccc32)C12CCCCC2 (centres undefined) + Cc1c(S(C)(=O)=O)c(-c2cc(F)cc(N3CCN(c4ccc(NS(=O)(=O)c5ccc(NC(CCN6CCC(C(=O)OCCCP(=O)(O)O)CC6)CSc6ccccc6)c(S(=O)(=O)C(F)(F)F)c5)cc4)CC3)c2)c(-c2ccc(Cl)cc2)n1C(C)C .
0.8%

Give the measured viability, T/C of Cc1nc(N2CCC3(CC2)COC(C)C3N)c(CO)nc1Sc1ccnc(N)c1Cl (centres undefined) + CNC(C)C(=O)NC1CN(S(=O)(=O)c2cccc(S(=O)(=O)N3CCC4CCC(C(=O)NC(c5ccccc5)c5ccccc5)N4C(=O)C(NC(=O)C(C)NC)C3)c2)CCC2CCC(C(=O)NC(c3ccccc3)c3ccccc3)N2C1=O .
115%

Give the measured viability, T/C of CCN1C(C(=O)NC23CCC(C(=O)O)(CC2)CC3)C(c2cccc(Cl)c2F)C2(C(=O)Nc3cc(Cl)ccc32)C12CCCCC2 (centres undefined) + CNC(C)C(=O)NC1CN(S(=O)(=O)c2cccc(S(=O)(=O)N3CCC4CCC(C(=O)NC(c5ccccc5)c5ccccc5)N4C(=O)C(NC(=O)C(C)NC)C3)c2)CCC2CCC(C(=O)NC(c3ccccc3)c3ccccc3)N2C1=O .
0.81%

* * *

System: SYO-1 complex spheroid growth, percent test/control
METHOD NOTES: Anticancer human tumor SYO-1 cell line growth inhibition [Asc];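 also: compound exposure lasted 7 days after spheroids grew 3 days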
TEST PARAMETERS: curve of first compound; second compound 0.949 µM
Below, each entry is listed with its recorded IC50.

COMPOUND	IC50
CNC(C)C(=O)NC1CN(S(=O)(=O)c2cccc(S(=O)(=O)N3CCC4CCC(C(=O)NC(c5ccccc5)c5ccccc5)N4C(=O)C(NC(=O)C(C)NC)C3)c2)CCC2CCC(C(=O)NC(c3ccccc3)c3ccccc3)N2C1=O (stereo not drawn) + CCN1C(C(=O)NC23CCC(C(=O)O)(CC2)CC3)C(c2cccc(Cl)c2F)C2(C(=O)Nc3cc(Cl)ccc32)C12CCCCC2	< 3.16 nM

Give the measured IC50 of NC1CCC(NC2CC2c2ccccc2)CC1 (stereo not drawn) + CCN1C(C(=O)NC23CCC(C(=O)O)(CC2)CC3)C(c2cccc(Cl)c2F)C2(C(=O)Nc3cc(Cl)ccc32)C12CCCCC2 .
< 0.316 nM

Give the measured IC50 of C=CC(=O)N1CCN(c2nc(=O)n(-c3c(C)ccnc3C(C)C)c3nc(-c4c(O)cccc4F)c(F)cc23)C(C)C1 (stereo not drawn) + CCN1C(C(=O)NC23CCC(C(=O)O)(CC2)CC3)C(c2cccc(Cl)c2F)C2(C(=O)Nc3cc(Cl)ccc32)C12CCCCC2 .
< 31.6 nM
